System: A498 renal
Test: NCI-60 one-dose screen, 48 h (100 = growth as untreated, 0 = no growth, -100 = all killed)
Conditions: 10 µM unless noted
The panel holds about 83,000 compounds, 20% with a hit somewhere; the sample as a whole holds those more often.
// NB: equality with 80% counts as false; only growth strictly below is true

- O=C(NCc1ccccc1)Nc1ccccc1CNc1nc(Nc2ccc(OCCN3CCCC3)cc2)ncc1Cl: true
- Cc1nc(-c2ccccc2)cc2c(O)c(C(=O)NN)[nH]c(=O)c12: false
- CNc1nc(S(=O)c2ccc(C#N)cc2)nc2ccccc12 (centres undefined): false
- Oc1ccc(CN2CCC(N3CCCCC3)CC2)c2cccnc12: true
- CCCCC[C@@H]1Cc2cc(O)c(C(=O)O)c3c2[C@H](C[C@]2(OC[C@@H](CC(=O)[C@@](C)(CC)C(=O)OC)[C@@H]2C)O3)O1: false

# strict comparison: is reported growth < 80%? input = C=C1C(=O)O[C@H]2[C@H]1CC/C(COC(=O)NCc1cc[nH]c1)=C\CC[C@@]1(C)O[C@@H]21
false

# strict comparison: is reported growth < 80%? input = CCN(CC)C(=S)SC(SC(=S)N(CC)CC)C(=O)c1nnn(-c2ccc([N+](=O)[O-])cc2)c1C
true

# strict comparison: is reported growth < 80%? input = O=C1Nc2ccccc2[C@]12CC(c1ccccc1)=NN2
true

# strict comparison: is reported growth < 80%? input = O=C1/C(=C/c2ccc(F)cc2)COc2ccc(O)cc21
false
